assay: yeast display, Sf9 membrane polyspecificity reagent, FACS + sequencing; frameworks hold sequencing errors
Value type: polyreactivity (PSR sort gate)

Construct sequence	Reported result
QVQLVESVGGLVQAGGSLRLSCAASGRIFAVYAMGWYRQAPGKEREFVAAISYSGGITYYADSVKGRFTISRDNAKNTVYLQMNSLKPEDTAVYYCNAYYYFWGQGTQVTVSS	low polyreactivity
QVQLVESGGGLVQAGGSLRISCAASGSTSYNYVMGWYRQAPGKERELVAGITWSDDITYYADSVKGRFTISRDNAKNTVYLQMNSLKPEDTAVYYCAAEDRPLYWRFPDEMDYWGQGTQVTVSS	low polyreactivity
QVQLVESGGGLVQAGGSLRLSCAASGSIFYAYVMGWYRQAPGKERELVAAISSGGSTYYADSVKGRFTISRDNAKNTVYLQMNSLKPEDTAVYYCAVGRPSGWSYYTGGDYWGQGTQVTVSS	high polyreactivity
QVQLVESGGGLVQAGGSLRLSCAASGRIFVTYVMGWYRPAPGKERELVAAISRRGGTTYYADSVKGRFTISRDNAKNTVYLQMNSLKPEDTAVYYCNVARHYAVESGYWGQGTQVTVSS	high polyreactivity
QVQLVESGGGLVQAGGSLRLSCAASGFIFKRYAMGWYRQAPGKVRELGAAITGSGGSTYYADSVKGRFTISRDNAKNTVYLQMNSLKPEDTAVYYCARGNGGSLDYWGQGTQVTVSS	high polyreactivity
